- system tested: DNA gyrase (Staphylococcus aureus) (UniProt P0A0K8+P20831)
- procedure details: In vivo efficacy against Staphylococcus aureus NCTC-10649M after subcutaneous administration
- Type: functional, organism-based
metric name: ED50 (mg/kg)

Worked cases, answers included:
compound | ED50, mg/kg
Cc1c(N2CC[C@H](N)C2)c(F)cn2c(=O)c(C(=O)O)cc(C3CC3)c12 | 0.6
Cc1c(N2CC[C@@H]3CNC[C@@H]32)c(F)cn2c(=O)c(C(=O)O)cc(C3CC3)c12 | 1.8
CC(NC(=O)C(C)N[C@H]1C[C@H](C)N(c2nc3c(-c4ccc(F)cc4F)cc(C(=O)O)c(=O)n3cc2F)C1)C(=O)O (some centres not stated) | 11.4
Cc1c(N2C[C@@H](C)N[C@@H](C)C2)c(F)cn2c(=O)c(C(=O)O)cc(C3CC3)c12 | 4.4
CC(NC1CCN(c2nc3c(-c4ccc(F)cc4F)cc(C(=O)O)c(=O)n3cc2F)C1)C(=O)O (configuration not stated) | 2.7

[A] NC1CCN(c2c(F)cn3c(=O)c(C(=O)O)cc(C4CC4)c3c2F)C1 (configuration not stated)
[B] NC1CCN(c2c(F)cn3c(=O)c(C(=O)O)cc(C4CC4)c3c2Cl)C1 (configuration not stated)
[C] Cc1c(N2CC[C@@H](O)C2)c(F)cn2c(=O)c(C(=O)O)cc(C3CC3)c12
[D] Cc1c(N2CC[C@@H](N)C2)c(F)cn2c(=O)c(C(=O)O)cc(C3CC3)c12
Rank the items in ascending order with respect to ED50. Please list the labels according to the requested order.
D, B, A, C

[a] Cc1c(N2CC[C@@]3(C[C@H]3N)C2)c(F)cn2c(=O)c(C(=O)O)cc(C3CC3)c12
[b] Cc1c(N2C[C@H]3CCN[C@H]3C2)c(F)cn2c(=O)c(C(=O)O)cc(C3CC3)c12 (single isomer, unassigned)
Form field 'greater ED50' accepts a or b ; which applies? Respond using the label that marks the chosen record.
a

[I] Cc1c(N2CC[C@@]3(C[C@@H]3N)C2)c(F)cn2c(=O)c(C(=O)O)cc(C3CC3)c12
[II] Cc1c(N2C[C@@H]3CCN[C@@H]3C2)c(F)cn2c(=O)c(C(=O)O)cc(C3CC3)c12 (stereo in doubt; 45o)
[III] Cc1c(N2C[C@H]3CCCN[C@H]3C2)c(F)cn2c(=O)c(C(=O)O)cc(C3CC3)c12 (single isomer, unassigned)
# sort list by recorded ED50, greatest to least Please list the labels according to the requested order.
III, I, II
(III: 6.1 mg/kg, I: 1.2 mg/kg, II: 0.7 mg/kg)

[1] Cc1c(N2CC[C@H](O)C2)c(F)cn2c(=O)c(C(=O)O)cc(C3CC3)c12
[2] Cc1c(N2CCC(N)C2)c(F)cn2c(=O)c(C(=O)O)cc(C3CC3)c12 (configuration not stated)
Form field 'greater ED50' accepts 1 or 2 ; which applies? Respond using the label that marks the chosen record.
1

----------
- procedure details: In vitro antibacterial activity against gram-negative organism Pseudomonas aeruginosa DPHD-2862
- Assay type: functional
- condition info: Pseudomonas aeruginosa; read-out: MIC
metric name: MIC (µg/mL)

compound | test value
Cc1c(N2C[C@@H](N)C[C@H]2C)c(F)cn2c(=O)c(C(=O)O)cc(C3CC3)c12 | 3.1
Cc1c(N2CCC(CN)C2)c(F)cn2c(=O)c(C(=O)O)cc(C3CC3)c12 (stereo unspecified) | 1.56
Cc1c(N2CC[C@@H](N)C2)c(F)cn2c(=O)c(C(=O)O)cc(C3CC3)c12 | 1.56
O=C(O)c1cc(C2CC2)c2nc(N3CCNCC3)c(F)cn2c1=O | 100
Cc1c(N2CC[C@@H](O)C2)c(F)cn2c(=O)c(C(=O)O)cc(C3CC3)c12 | 25
NC1CCN(c2nc3c(C4CC4)cc(C(=O)O)c(=O)n3cc2F)C1 (stereo unspecified) | 25

[A] Cc1c(N2C[C@H]3CCC[C@H](N)[C@H]3C2)c(F)cn2c(=O)c(C(=O)O)cc(C3CC3)c12
[B] Cc1c(N2C[C@@H](N)C[C@@H]2C)c(F)cn2c(=O)c(C(=O)O)cc(C3CC3)c12
Look at A and B . Which one has the lower recorded MIC number? Respond using the label that marks the chosen record.
B

[a] Cc1c(N2C[C@@H]3CCN[C@@H]3C2)c(F)cn2c(=O)c(C(=O)O)cc(C3CC3)c12 (stereo in doubt; 45o)
[b] Cc1c(N2CC[C@@]3(C[C@@H]3N)C2)c(F)cn2c(=O)c(C(=O)O)cc(C3CC3)c12
Form field 'greater MIC' accepts a or b ; which applies? Respond using the label that marks the chosen record.
a

[P] Cc1c(N2C[C@@H]3[C@@H](N)[C@@H]3C2)c(F)cn2c(=O)c(C(=O)O)cc(C3CC3)c12
[Q] NC1CCN(c2nc3c(-c4ccc(F)cc4F)cc(C(=O)O)c(=O)n3cc2F)C1 (stereo unspecified)
Form field 'greater MIC' accepts P or Q ; which applies? Respond using the label that marks the chosen record.
Q

[A] Cc1c(N2CCC(N)C2)c(F)cn2c(=O)c(/C(O)=C/[N+](=O)[O-])cc(C3CC3)c12 (stereo unspecified)
[B] Cc1c(N2CCC(n3cccc3)C2)c(F)cn2c(=O)c(C(=O)O)cc(C3CC3)c12 (stereo unspecified)
Look at A and B . Which one has the lower recorded MIC number? Respond using the label that marks the chosen record.
A

[I] NC1CCN(c2c(F)cn3c(=O)c(C(=O)O)cc(C4CC4)c3c2F)C1 (stereo unspecified)
[II] Cc1c(N2CCC(n3ccnn3)C2)c(F)cn2c(=O)c(C(=O)O)cc(C3CC3)c12 (stereo unspecified)
Form field 'greater MIC' accepts I or II ; which applies? Respond using the label that marks the chosen record.
II
(II: 12.5 µg/mL, I: 6.2 µg/mL)

[I] Cc1c(N2C[C@H]3CCN[C@H]3C2)c(F)cn2c(=O)c(C(=O)O)cc(C3CC3)c12 (single isomer, unassigned)
[II] COc1c(N2CCC(N)C2)c(F)cn2c(=O)c(C(=O)O)cc(C3CC3)c12 (stereo unspecified)
Form field 'greater MIC' accepts I or II ; which applies? Respond using the label that marks the chosen record.
I
(I: 6.2 µg/mL, II: 3.1 µg/mL)

[I] Cc1c(N2CCC(O)C2)c(F)cn2c(=O)c(C(=O)O)cc(C3CC3)c12 (stereo unspecified)
[II] Cc1c(N2C[C@@H](C)N[C@@H](C)C2)c(F)cn2c(=O)c(C(=O)O)cc(C3CC3)c12
Form field 'greater MIC' accepts I or II ; which applies? Respond using the label that marks the chosen record.
II

[1] Cc1c(N2C[C@H]3CCC[C@@H](N)[C@H]3C2)c(F)cn2c(=O)c(C(=O)O)cc(C3CC3)c12
[2] Cc1c(N2C[C@@H]3CCCN[C@@H]3C2)c(F)cn2c(=O)c(C(=O)O)cc(C3CC3)c12 (stereo in doubt; (S,S)45n)
Look at 1 and 2 . Which one has the lower recorded MIC number? Respond using the label that marks the chosen record.
2

----------
- system tested: DNA gyrase (Escherichia coli) (UniProt P0AES6+P0AES4)
- procedure details: In vivo efficacy against Escherichia coli JUHL after oral administration
- Type: functional, organism-based
- condition info: Escherichia coli K-12
metric name: ED50 (mg/kg)

Worked cases, answers included:
compound | system tested | unit of measure | ED50
Cc1c(N2CC[C@@H]3CNC[C@@H]32)c(F)cn2c(=O)c(C(=O)O)cc(C3CC3)c12 | DNA gyrase (Escherichia coli) (UniProt P0AES6+P0AES4) | mg/kg | 3.6
NC1CCN(c2c(F)cn3c(=O)c(C(=O)O)cc(C4CC4)c3c2Cl)C1 (stereo not given) | DNA gyrase (Escherichia coli) (UniProt P0AES6+P0AES4) | mg/kg | 5.6

[1] NC1CCN(c2nc3c(C4CC4)cc(C(=O)O)c(=O)n3cc2F)C1 (stereo not given)
[2] Cc1c(N2CC[C@@]3(C[C@H]3N)C2)c(F)cn2c(=O)c(C(=O)O)cc(C3CC3)c12
Look at 1 and 2 . Which one has the lower recorded ED50 number? Respond using the label that marks the chosen record.
1
(1: 4.7 mg/kg, 2: 12.8 mg/kg)

----------
- Test system: Streptococcus pyogenes
- procedure details: In vitro antibacterial activity against gram-positive organism Streptococcus pyogenes EES61
- Assay type: functional
- condition info: Streptococcus pyogenes; read-out: MIC
metric name: MIC (µg/mL)

[a] NC1CCN(c2c(F)cn3c(=O)c(C(=O)O)cc(C4CC4)c3c2Cl)C1 (centres undefined)
[b] CN1CCN(c2nc3c(-c4ccc(F)cc4)cc(C(=O)O)c(=O)n3cc2F)CC1
[c] O=C(O)c1cc(C2CC2)c2cc(N3CCNCC3)c(F)cn2c1=O
Ranking field: MIC; order: falling. Please list the labels according to the requested order.
b, c, a

[a] Cc1c(N2CCC(CN)C2)c(F)cn2c(=O)c(C(=O)O)cc(C3CC3)c12 (centres undefined)
[b] CN1CCN(c2nc3c(-c4ccc(F)cc4F)cc(C(=O)O)c(=O)n3cc2F)CC1
[c] Cc1c(N2CC[C@@]3(C[C@@H]3N)C2)c(F)cn2c(=O)c(C(=O)O)cc(C3CC3)c12
[d] Cc1c(N2C[C@H]3CCCN[C@H]3C2)c(F)cn2c(=O)c(C(=O)O)cc(C3CC3)c12 (single isomer, unassigned)
[e] Cc1c(N2CC[C@@H]3CNC[C@@H]32)c(F)cn2c(=O)c(C(=O)O)cc(C3CC3)c12
Rank the items in ascending order with respect to MIC. Please list the labels according to the requested order.
a, c, d, e, b
(a: 0.002 µg/mL, c: 0.01 µg/mL, d: 0.05 µg/mL, e: 0.1 µg/mL, b: 3.1 µg/mL)

The reported measurements were obtained from ChEMBL document CHEMBL1129258.
